- Test system: HEK-293T
- Protocol Text: Multiplex assay against HEK293T
- Format: toxicity, cell-based
- Study Conditions: human, 24 h, 10 µM, compound concentration 10 uM, replicate 2
Recorded measurements of Population Membrane Permeable-Phenotype (%), one per entry

Look over these answered cases.
| Chemical Structure | Readout Value |
| --- | --- |
| Cc1ccc(NC(=O)Nc2cc(C(F)(F)F)ccc2F)cc1Nc1ccc2c(c1)NC(=O)/C2=C\c1ccc[nH]1 | 3% |
| CN(c1cc(C(F)(F)F)nc(OCCC(=O)O)n1)c1cccc2c1CCC2 | 3% |
| Cc1ccc(S(=O)(=O)NC2c3ccccc3Oc3ccccc32)cc1 | 9% |

The molecule listed as `Cc1c(P(=S)(c2ccccc2)c2ccccc2)n2ccccc2[n+]1C/C=C/c1ccccc1.[Br-]` has a reported Population Membrane Permeable-Phenotype (%) of 16%

// Population Membrane Permeable-Phenotype (%) lookup, molecule = `Oc1cccc(-c2nc(N3CCOCC3)c3oc4ncccc4c3n2)c1` , result: 23%
